Measured self-aminoacylation by item
# System: biotinyl-Ile-oxazolone
# TEST_SUMMARY: self-aminoacylation, catalytic enhancement (BIO) (fold over background); higher = more active; k-Seq, kA / k0A0; sequences stand for … in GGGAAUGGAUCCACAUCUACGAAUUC…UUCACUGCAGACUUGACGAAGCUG
Fewer inactive variants are shown than the library holds.

Known results for sequences:
CCACACUUCAAGACAUCGGUC [Fam1B.1 aminoacylation ribozyme variant] :: 1
CUAAUUCAAACAAUCCGUCUG [Fam1A.1 aminoacylation ribozyme variant] :: 0.682
AUUACCCUGGUCAUCAUGUGA [Fam2.1 aminoacylation ribozyme variant] :: 2.67
AGUCGCCUAGGUCAUCGGGUG [Fam2.2 aminoacylation ribozyme variant] :: 5.29
CUUACCCUGGUCAUCGAAUGA [Fam2.1 aminoacylation ribozyme variant] :: 1.01

Lab note: CCUCACUUCAAGCAACCGGUC [Fam1B.1 aminoacylation ribozyme variant] gave self-aminoacylation of 0.978

Lab note: AUUACCCUUGUCAUCGAGUAA [Fam2.1 aminoacylation ribozyme variant] gave self-aminoacylation of 1.19

Lab note: AAGUCUGCUAGUAGUCGCAAG [Fam3.1 aminoacylation ribozyme variant] gave self-aminoacylation of 0.775

Lab note: CCACACUUCAAGCAAUCCGUG [Fam1B.1 aminoacylation ribozyme variant] gave self-aminoacylation of 2.79

Lab note: ACUCACCUAGGUCGUCGGGUG [Fam2.2 aminoacylation ribozyme variant] gave self-aminoacylation of 2.58

---

# Test system: biotinyl-Phe-oxazolone
# TEST_SUMMARY: self-aminoacylation, catalytic enhancement (BFO) (fold over background); higher = more active; k-Seq, kA / k0A0; sequences stand for … in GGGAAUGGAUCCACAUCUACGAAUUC…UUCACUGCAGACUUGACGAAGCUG
Variants at the floor of the assay were thinned out.
Measured self-aminoacylation by item

Known results for sequences:
AUUAACCUGGUCAUCGAGUGG [Fam2.1 aminoacylation ribozyme variant] :: 2.19
AUGCACCUAGGUUAUCGGGUG [Fam2.2 aminoacylation ribozyme variant] :: 32.7

Switching to the query record.
Lab note: CCACACUUCAAGCAACCAGUC [Fam1B.1 aminoacylation ribozyme variant] gave self-aminoacylation of 1.26

---

Measured self-aminoacylation by item
# Test system: biotinyl-Val-oxazolone
# TEST_SUMMARY: self-aminoacylation, catalytic enhancement (BVO) (fold over background); higher = more active; k-Seq, kA / k0A0; sequences stand for … in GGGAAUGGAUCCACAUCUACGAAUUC…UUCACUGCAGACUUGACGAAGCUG
This sample holds only a part of the variants without activity.
The answer should be a number; do not append a unit.

Known results for sequences:
AUACUUCAAACAAUCAGUCUG [Fam1A.1 aminoacylation ribozyme variant] :: 1.02
AAGUUUGAUAAUAGACGCAAG [Fam3.1 aminoacylation ribozyme variant] :: 0.418
CCACACUUCAGUCAAUCGGUC [Fam1B.1 aminoacylation ribozyme variant] :: 0.965
AUUCCCCUGGUGAUCGAGUGA [Fam2.1 aminoacylation ribozyme variant] :: 3.13
AUUCACCUAGCACAUCGGGUG [Fam2.2 aminoacylation ribozyme variant] :: 2.12

Item: CCACACUUCAAGCUAUAGGUC [Fam1B.1 aminoacylation ribozyme variant] | System: biotinyl-Val-oxazolone | self-aminoacylation: 0.806

Item: AUUACCCUGCUCACCGAGUGA [Fam2.1 aminoacylation ribozyme variant] | System: biotinyl-Val-oxazolone | self-aminoacylation: 3.35

Item: AUUAACCUGGUCAUCGAGUGU [Fam2.1 aminoacylation ribozyme variant] | System: biotinyl-Val-oxazolone | self-aminoacylation: 2.61

Item: AUUCAUCUAGGUCAUCGGGGG [Fam2.2 aminoacylation ribozyme variant] | System: biotinyl-Val-oxazolone | self-aminoacylation: 1.9

Item: AAGUCUGCUAAAAGUCGCAAG [Fam3.1 aminoacylation ribozyme variant] | System: biotinyl-Val-oxazolone | self-aminoacylation: 1.23

Item: AAUUUUGCUUAUAGUCGCAAG [Fam3.1 aminoacylation ribozyme variant] | System: biotinyl-Val-oxazolone | self-aminoacylation: 2.14

Item: ACGUGUGCUAAUAGUCGCAAG [Fam3.1 aminoacylation ribozyme variant] | System: biotinyl-Val-oxazolone | self-aminoacylation: 1.28

Item: AAGUUUGCUGAUAGUCCCAAG [Fam3.1 aminoacylation ribozyme variant] | System: biotinyl-Val-oxazolone | self-aminoacylation: 0.847

Item: AUUCCCCUGGUCAUCGAGUGC [Fam2.1 aminoacylation ribozyme variant] | System: biotinyl-Val-oxazolone | self-aminoacylation: 1.64

Item: AUUCACGUAGGUCAUCGGGCG [Fam2.2 aminoacylation ribozyme variant] | System: biotinyl-Val-oxazolone | self-aminoacylation: 2.56

Item: AUGCAACUAGGUCAUCGGGUG [Fam2.2 aminoacylation ribozyme variant] | System: biotinyl-Val-oxazolone | self-aminoacylation: 5.58

Item: UACUUUGCUAAUAGUCGCAAG [Fam3.1 aminoacylation ribozyme variant] | System: biotinyl-Val-oxazolone | self-aminoacylation: 1.33

Item: CCAAACUUCAAGCAAUCGUUC [Fam1B.1 aminoacylation ribozyme variant] | System: biotinyl-Val-oxazolone | self-aminoacylation: 0.93

Item: AUUCCCCUGGUCGUCGAGUGA [Fam2.1 aminoacylation ribozyme variant] | System: biotinyl-Val-oxazolone | self-aminoacylation: 1.33

Item: CUACUUCAGAUAAUCGGUCUG [Fam1A.1 aminoacylation ribozyme variant] | System: biotinyl-Val-oxazolone | self-aminoacylation: 0.686
